// provenance: patent US9695154B2

Target: recombinant human SAE enzyme (Homo sapiens, UniProt Q9UBT2)
Sequence (Q9UBT2 whole entry): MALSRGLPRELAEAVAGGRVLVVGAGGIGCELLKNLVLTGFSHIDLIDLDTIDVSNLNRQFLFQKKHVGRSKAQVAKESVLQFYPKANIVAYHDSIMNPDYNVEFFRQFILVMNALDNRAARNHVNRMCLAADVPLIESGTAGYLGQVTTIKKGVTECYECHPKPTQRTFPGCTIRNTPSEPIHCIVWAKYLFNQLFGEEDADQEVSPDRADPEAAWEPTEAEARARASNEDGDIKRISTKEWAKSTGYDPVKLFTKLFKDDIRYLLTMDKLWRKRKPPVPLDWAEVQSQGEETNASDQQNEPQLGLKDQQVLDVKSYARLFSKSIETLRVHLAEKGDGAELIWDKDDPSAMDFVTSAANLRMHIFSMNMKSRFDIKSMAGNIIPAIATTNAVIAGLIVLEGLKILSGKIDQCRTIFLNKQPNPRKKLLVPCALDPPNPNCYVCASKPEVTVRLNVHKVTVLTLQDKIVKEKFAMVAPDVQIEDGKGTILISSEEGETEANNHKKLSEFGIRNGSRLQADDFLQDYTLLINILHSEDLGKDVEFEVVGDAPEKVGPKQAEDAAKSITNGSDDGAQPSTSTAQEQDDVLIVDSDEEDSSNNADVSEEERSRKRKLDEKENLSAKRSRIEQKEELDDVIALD
Sequence (Q9UBE0 whole entry partner): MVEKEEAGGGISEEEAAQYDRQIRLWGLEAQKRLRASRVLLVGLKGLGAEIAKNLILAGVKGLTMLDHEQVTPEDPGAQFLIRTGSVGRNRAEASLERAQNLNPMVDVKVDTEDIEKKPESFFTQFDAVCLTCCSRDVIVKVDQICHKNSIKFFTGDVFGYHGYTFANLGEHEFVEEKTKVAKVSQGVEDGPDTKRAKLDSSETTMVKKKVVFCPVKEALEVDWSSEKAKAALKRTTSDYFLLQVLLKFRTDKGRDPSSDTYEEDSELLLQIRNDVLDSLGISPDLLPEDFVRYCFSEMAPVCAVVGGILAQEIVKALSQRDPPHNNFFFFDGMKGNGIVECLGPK
Assay: SAE HTRF Enzyme Assay
Assay type: biochemical
Details: compound concentration 0.111 μM; read-out: Percent Inhibition
Procedure: The SAE enzymatic reaction totals 50 μl and contains 50 mM HEPES Hemisodium (pH 7.5), 0.05% BSA, 5 mM MgCl2, 0.5 μM ATP, 250 μM GSH, 0.01 μM Ubc9-GST, 0.125 μM Sumo-Flag and 0.11 nM recombinant human SAE enzyme. […] After incubation for 2 hours at 24° C., quantification of FRET is performed on the Pherostar™ (BMG Labtech). Percentage inhibition values at a single concentration or enzyme inhibition (IC50) values are determined from those curves. […]
value_type: inhibition at 0.111 µM (%)
Just the number in %, nothing appended.

[
  {
    "compound": "Cc1cc(C(=O)c2cncnc2N[C@@H]2C[C@H](COS(N)(=O)=O)[C@@H](O)C2)nn1Cc1cccc(Br)n1 [Compound I-238]",
    "value_type": "inhibition at 0.111 µM",
    "unit_symbol": "%",
    "recorded_number": 99
  },
  {
    "compound": "NS(=O)(=O)OC[C@H]1C[C@@H](Nc2ncncc2C(=O)c2ccn(Cc3cccc(-c4ccccc4)c3)n2)[C@H](O)[C@@H]1O [Compound I-278]",
    "value_type": "inhibition at 0.111 µM",
    "unit_symbol": "%",
    "recorded_number": 97
  },
  {
    "compound": "NS(=O)(=O)OC[C@H]1C[C@@H](Nc2ncncc2C(=O)c2ccn(Cc3ccc(F)cc3Cl)n2)C[C@@H]1O [Compound I-185]",
    "value_type": "inhibition at 0.111 µM",
    "unit_symbol": "%",
    "recorded_number": 91
  }
]

Kindly note the recorded inhibition at 0.111 µM for NS(=O)(=O)OC[C@H]1C[C@@H](Nc2ncncc2C(=O)c2ccn(Cc3cccc(I)c3)n2)[C@H](O)[C@@H]1O [Compound I-221] , which is 100

Kindly note the recorded inhibition at 0.111 µM for CC#CCn1ccc(C(=O)c2cncnc2N[C@@H]2C[C@H](COS(N)(=O)=O)[C@@H](O)C2)c1 [Compound I-340] , which is 94

Kindly note the recorded inhibition at 0.111 µM for NS(=O)(=O)OC[C@H]1C[C@@H](Nc2ncncc2C(=O)c2ccn(S(=O)(=O)c3cccc(Br)c3)c2)C[C@@H]1O [Compound I-255] , which is 97

----------
molecular target: recombinant human SAE enzyme (Homo sapiens); assay: SAE HTRF Enzyme Assay; assay type: biochemical; settings: compound concentration 0.111 μM; read-out: Percent Inhibition
Form field: inhibition at 0.111 µM (one value per entry).
Just the number in %, nothing appended.

Known inhibition at 0.111 µM results, listed for orientation:
[
  {
    "chemical_smiles": "CC(C)(c1ccccc1)n1ccc(C(=O)c2cncnc2N[C@@H]2C[C@H](COS(N)(=O)=O)[C@@H](O)C2)c1",
    "unit_symbol": "%",
    "inhibition at 0.111 µM": 80
  },
  {
    "chemical_smiles": "CC(C)Cn1ccc(C(=O)c2cncnc2N[C@@H]2C[C@H](COS(N)(=O)=O)[C@@H](O)[C@H]2O)n1",
    "unit_symbol": "%",
    "inhibition at 0.111 µM": 71
  },
  {
    "chemical_smiles": "NS(=O)(=O)OC[C@H]1C[C@@H](Nc2ncncc2C(=O)c2ccn(Cc3cccc(Br)c3)n2)[C@H](O)[C@@H]1O",
    "unit_symbol": "%",
    "inhibition at 0.111 µM": 100
  }
]

Measured inhibition at 0.111 µM (recombinant human SAE enzyme (Homo sapiens)), entry NS(=O)(=O)OC[C@H]1C[C@@H](Nc2ccncc2C(=O)c2ccn(Cc3cccc(OC(F)(F)F)c3)n2)C[C@@H]1O : 96

Measured inhibition at 0.111 µM (recombinant human SAE enzyme (Homo sapiens)), entry NS(=O)(=O)OC[C@H]1C[C@@H](Nc2ncncc2C(=O)c2ccn(Cc3ccc(F)c(Br)c3)n2)[C@H](O)[C@@H]1O : 99

Measured inhibition at 0.111 µM (recombinant human SAE enzyme (Homo sapiens)), entry NS(=O)(=O)OC[C@H]1C[C@@H](Nc2ncncc2C(=O)c2ccn(Cc3ccc(C(F)(F)F)o3)c2)[C@@H](F)[C@@H]1O : 99
